Please provide measured pEC50 for the entries that follow.
test system: human M2 macrophages; assay: Inhibition of human M2 macrophage activity, hCCL22 in culture supernatant by ELISA; format: cell-based; details: hCCL22 secretion, THP-1 derived M2-like macrophages, compound present during 72 hours of differentiation
Field pEC50 (float): negative decimal logarithm of the concentration in molar.

INPUT: I would be grateful if you could share the reported pEC50 for CC1(C)Oc2cc(OP(=O)(O)O)ccc2C2C1=CCn1c(=O)n(-c3ccc(C(F)(F)F)cc3)c(=O)n12 (stereo not drawn) .
OUTPUT: 5.20

INPUT: Same again, this time with CC(=O)c1ccc(-n2c(=O)n3n(c2=O)C2C(=CC3)C(C)(C)Oc3c2cc(Cl)c(N)c3Cl)cc1 (stereo not drawn)
OUTPUT: 5.70

INPUT: Same again, this time with CN(C)C(=O)Oc1ccc2c(c1)OC(C)(C)C1=CCn3c(=O)n(-c4ccc(C(F)(F)F)cc4)c(=O)n3C12 (stereo not drawn)
OUTPUT: 4.11

INPUT: Same again, this time with CC(=O)c1ccc(-n2c(=O)n3n(c2=O)C2C(=CC3)C(C)(C)Oc3cc(N(C(C)C)C(C)C)ccc32)cc1 (stereo not drawn)
OUTPUT: 5.09

INPUT: Same again, this time with CC(=O)c1ccc(-n2c(=O)n3n(c2=O)C2C(=CC3)C(C)(C)Oc3cc(N)ccc32)cc1 (stereo not drawn)
OUTPUT: 5.35

INPUT: Same again, this time with CC(=O)c1ccc(-n2c(=O)n3n(c2=O)C2C(=CC3)C(C)(C)Oc3cc(OC(=O)N(C)C)ccc32)cc1 (stereo not drawn)
OUTPUT: 4.38

INPUT: Same again, this time with CC(=O)c1ccc(-n2c(=O)n3n(c2=O)C2C(=CC3)C(C)(C)Oc3cc(-c4cc(C)nn4C)ccc32)cc1 (stereo not drawn)
OUTPUT: 4.50

INPUT: Same again, this time with CC1(C)Oc2cc(OP(=O)(O)O)ccc2C2C1=CCn1c(=O)n(-c3ccc(C(C)(C)C)cc3)c(=O)n12 (stereo not drawn)
OUTPUT: 5.27
